- ASSAY EXPLANATION: label from the status in PepcDB records
MEASUREMENT LABEL: protein production

{"columns": ["SEQUENCE DATA", "MEASUREMENT"],
 "data": [
  ["MSLDKKLMPVPDGHPDVFDREWPLRVGDIDRAGRLRLDAACRHIQDIGQDQLREMGFEETHPLWIVRRTMVDLIRPIEFGDMLRCRRWCSGTSNRWCEMRVRVDGRKGGLIESEAFWIHVNRETEMPARIADDFLAGLHRTTSVDRLRWKGYLKPGSRDDASEIHEFPVRVTDIDLFDHMNNAVYWSVIEDYLASHAELLRGPLRVTIEHEAPVALGDKLEIISHVHPAGSTEIFGPGLVDRAVTTLTYVVGDEPKAVASLFNL", "failed"],
  ["MNFIQSNLNNLLAIAWFALCWGGYTRYAIWKGRDTACLASVLHLYREDWMRRMLLRDNRIADASVIGNLERNASFFASSTLIILAGILTVLGASDRALSLLADLPLVQQTSQGMSEIKLLCLAMVFVYAFFTFSWCMRQYNFAAVLVGSAPMIGERLVNELERKAFASRAARVLSLAANQFNLGLRSYYFGMAMLSWFISPWLFMAMSVGVVLILYRREFHSDVLDVMVFTPTESVLSEPAKESSVVSN", "failed"]
]}

###

- ASSAY EXPLANATION: label from the status in PepcDB records

{"columns": ["SEQUENCE DATA", "protein production"],
 "data": [
  ["MANFEDFLTLDLRIGTVTHAEEFKEARVPAIKLEIDFGELGMKQSSAQITKRYNPEDLIGQQIVAVVNFPPKRVAGFKSEVLVLGGVPEAGDVVLLQPNMELPNGTKIS", "not failed"],
  ["NIKNILSERVSAAMVAAGLPEGTNPAISLSNRPQFGDYQANGVMGAAKKLKTNPRELATKVVAELDLDGIASKIELAGPGFINIHLDESWLAAQLNEVAQDDFIGVAQRGTT", "not failed"],
  ["MKNRALLLIDFQKGIESPTQQLYRLPAVLDKVNQRIAVYRQHHAPIIFVQHEETELPFGSDSWQLFEKLDTQPTDFFIRKTHANAFYQTNLNDLLTEQAVQTLEIAGVQTEFCVDTTIRMAHGLGYTCLMTPKTTSTLDNGHLTAAQIIQHHEAIWAGRFLTFLSL", "not failed"],
  ["HRYIPTLFFHGWGSSYHAETHMADAIVKAGKTQTIVRAMVAKNGTVTLKGHFRSGDYRPIVEVNFANNRSSDYPTVGRWAKNVVVALQRTYGITSFNMVGHSMGNMAITYYLLANAQNKRLPQLRQQVAIAGHFNGILGMDDSPNQMTLNAAGRPNKLRPAYRQLLGLRRVYPRQQVRVLNIYGDKGDGTHSDGSVSNASSRSLRYLVAARARSYREVKLTGKHAQHSQLHENAQVDRLLIDFLWPTH", "not failed"]
]}

###

- ASSAY EXPLANATION: label from the status in PepcDB records
MEASUREMENT LABEL: protein production

{"columns": ["SEQUENCE DATA", "protein production"],
 "data": [
  ["MAIKVGINGFGRIGRSFFRASWGREEIEIVAINDLTDAKHLAHLLKYDSVHGIFKGSVEAKDDSIVVDGKEIKVFAQKDPSQIPWGDLGVDVVIEATGVFRDRENASKHLQGGAKKVIITAPAKNPDITVVLGVNEEKYNPKEHNIISNASCTTNCLAPCVKVLNEAFGVEKGYMVTVHAYTNDQRLLDLPHKDFRRARAAAINIVPTTTGAAKAIGEVIPELKGKLDGTARRVPVPDGSLIDLTVVVNKAPSSVEEVNEKFREAAQKYRESGKVYLKEILQYCEDPIVSTDIVGNPHSAIFDAPLTQVIDNLVHIAAWYDNEWGYSCRLRDLVIYLAERGL", "not failed"],
  ["KESLQVTLYRDNHAWCPYCQKVWLWLEEKQIPYRIKKVTMFCYGEKEDWYKKLVPSGMLPALELDGRFYTESDDILIALEKAFGPLLWAMEDPLVLPLRKLERLLFRAWCNWLCYPAM", "failed"],
  ["DHSLAIIEFDLSSRIIEVNQNYLDYFGYQRDEVIGQYHLMFCHPGYANSDEYQKIKTSLLAGQSLEGRFERIHKDGSRVWLAAIYQPVSGPDGSVTRIVKIAKNIT", "failed"],
  ["MRKARGIKLIAVFLVAAVVNVVFGFCVLAKAQILKKPAENSYVFDYANLIDSSDEEEMRALAKEIEDKSKAEIVVVTVETLGSYTIEEYANELFRSWEIGDKELNNGVLILVNKENLLLGKKGRIRIEVGYGLEGAITDGKAGRTLDEYAIPAFERNEYSKGIRDTFLAVASEVANEYGLKIDGLSGYGASEDVNENEVTSDGNAENVVDVPFGLGIGAGLIVGFGLFFFIIFLMVIVILYNQPYAGKKYEWTWKNGKWEKKVYVYRYDDLWKNNRSFFDDSDDSDSFGSGGGFGGFGGGSSGGGGASR", "failed"],
  ["MWWPGTVIGVGAGFAVASIPGALLGALLGQAIDRRLRLQGWEDMRERLGGRPALRDDELLFVMLGRLAKCDGRVAEQHIQQARQEMVRLDLAEAARLRAINAFNRGKAGKDRLGGHLRRISQQPHAAEGTLRACWRMVWADGKMGNKERELLLDWGQKLGMSRRQVQAMSLEYEPRKATGAESVPMTYAAALRLLAVDADTDTDKVKQAYRRLVSRHHPDKLAGTGASEAQVREATARTRELHQAYAMIRKRRGL", "failed"]
]}

Reported protein production for VTTVGFDVAARLGTLLTAMVTPFSGDGSLDTATAARLANHLVDQGCDGLVVSGTTGESPTTTDGEKIELLRAVLEAVGDRARVIAGAGTYDTAHSIRLAKACAAEGAHGLLVVTPYYSKPPQRGLQAHFTAVADATELPMLLYDIPGRSAVPIEPDTIRALASHPNIVGVKDAKADLHSGAQIMADTGLAYYSGDDALNLPWLAMGATGFISVIAHLAAGQLRELLSAFGSGDIATARKINIAVAPLCNAMSRLGGVTLSKAGLRLQGIDVGDPRLPQVAATPEQIDALAADMRAASVLR : what is it?
not failed

Now the sequence MSISSHDVGRTYPTTDPYLVTAEKIRELATALGDNAPAYRGDDPIAPPTFAMVLASRAWEALFDDEQLDLRLEHMIHTDQSFHWIRPLHEGDEVTAALTITSVRTRGNTDIIGINVSLDHVDGEHLGNATSTLWHTRPEGNA
failed

// query: MLIVDTILKPDRFGGIGLFSATRLPKGSLIWIHNPIVDITVTPEQYEALAPTFQALLDKHAYPRDYKAYDGVIEYNADNARFMNHSSRPNTYQDDRRVFTARDVQPGEELTCNYLFFDPRCDVSWNEEPSMNLDAPTG
failed

And the next one, MNKVDEIEDFRFEDLEMETEKDKERMMTPTTRMSYSSSSSPSPSSASSSAASSLAAKAIRASSAHRDSSLSSAYSSPSSAPVPTPPKEVNKAYEYTSMKSLNEPKRGFWGSLASKAKAFLDEDDPNQLPQSPKRMEQSIPSATTSGTKEAGQTGRKSENPSLQRRLDAITSSLNYIGGTIGTVVEEGITAVENRTAGIIQETRKKIKKKPSLTRNQQNPEIQADLEIQLKASRDVAMAMAAKAKLLLRELKMVKSDLAFAKQRCAQLEEENKVLRENRSGDSQTDDDDLVRLQLETLLAEKARLAHENSIYTRENLYLRGVVEYHQLTMQDVVYFDEKTEEVTEVYPINVSSMSSSSDNSYNPNPSFLELK ?
failed

// repeat for MTETFNPDLDLKISRIIKAPRRLVWNAWTDKTSLEQWWVPHPGQCRVDKMELHPGGAFETRYSEDGREFGQHVSGCFLAVDHEQRLIFTDALTAGFRPSAQPFLTAVMTFRDHPDGMEYEAYAMHNNLADRDRHAEMGFFDGWNTVAEQLAQLVEKQAAH and report
failed

Also MYSRLPTTYELIEALQASPQAGPAAESRLATVLWAGFVLALVPMLVAGGALVWWHRVLAQVPPAWLPQVFHVLLAVCGVFYVGAWVIRLLDRRAALQHPLRWLTRRLDTQSEVENALLLRLGRIPALQLRARQRRVVLQARLWDASARTMALVLAIGPAAVILADGVAVMAPGGVPALVAIYGAVLVAGCALALFAQLQCSAPLRRLAHVLGEAAEINEAVNRQRQP , if possible.
failed

Also check MRFAVLGSGSQGNGTLIASGDTFILVDCGFSLRETERRLALLGVSAAQLSAVLVTHEHADHVHGVGLLSRRYNVPVYLSQGTLRGMRKPVEVAGFLACGQSLHIGSLEVTAARVEHDAYEPLQYVVSDGKRRFGMLTDLGSYDALLLERYQGLDALLIEANHCRDLLARGHYPAFLKQRVGGMQGHLNNHQAARLVHELGWNNLQHLVLAHLSSKNNLPHLARQCFVDTLGCDPDWLQVANQEHGLDWREIALEHHHHHH
not failed

Hello, the source for this data is a protein production outcome set (Wang et al. 2014), in case you need it.
